The values you see were collected from patent US5525625A.

# Tested on: K562
# procedure-text: Growth in soft-agar, K562
# Type: cell-based
# test-conditions: Homo sapiens; K562, anchorage independent (soft agar clonogenicity)
# Protocol: Cells were seeded into 35-mm dishes at 5 to 10,000 cells/dish using growth medium containing 0.3% agar. After chilling to solidify the agar, cells were transfered to a 37° C. incubator. After 7 to 10 days growth, visible colonies were manually enumerated with the aid of a dissecting microscope.
pIC50: −log10 of the molar value.
measurement-type: pIC50

[[record]]
smiles_str = "COc1cccc(-c2cc(=O)c3ccccc3o2)c1N"
measurement_type = "pIC50"
assay_value = 4.22


====

# System: K-Ras/NRK
# procedure-text: Growth in soft-agar, K-Ras/NRK
# Format: cell-based
# test-conditions: anchorage independent (soft agar clonogenicity)
pIC50: −log10 of the molar value.
measurement-type: pIC50

[[record]]
compound = "COc1cccc(-c2cc(=O)c3ccccc3o2)c1N [invention compound]"
assayed_target = "K-Ras/NRK"
measurement_type = "pIC50"
assay_value = 5.70

